# System: K562
# procedure-text: NCI tumour cell line growth inhibition, 48 h
Calls of active or inactive are those of the source. Rule as the data show it: active = GI50 up to about 1.1 µM and inactive = higher.
test-readout: GI50

Example entries begin here.
compound=N#Cc1sc2c(c1OC(=O)c1cccs1)c(=O)n(-c1ccccc1)c(=S)n2-c1ccccc1 tested_system=K562 val="22 µM (inactive)"
compound=COc1ccccc1/C=C1\Sc2scc(-c3cccc([N+](=O)[O-])c3)[n+]2C1=O tested_system=K562 val="2.79 µM (inactive)"
compound=Cc1cc(=O)oc2cc3c(cc12)Oc1ccccc1O3 tested_system=K562 val="> 10 µM (inactive)"
compound=COc1ccc(NC(=O)c2cc(NC(=O)/C=C/c3ccccc3)c(OC)c(OC)c2)cc1 tested_system=K562 val="13.4 µM (inactive)"
compound=c1ccc(NNC2=NCCN2)cc1 tested_system=K562 val="> 100 µM (inactive)"

Quick one: GI50 of COC(=O)CCCCCOS(=O)(=O)c1ccc(C)cc1 ?
> 100 µM (inactive)

Dear colleague, I am looking for the recorded GI50 of the following compound: COc1ccc2c(c1)[n+]([O-])c(C(=O)C/C(=N/OCCCc1ccccc1)C(=O)NC13CC4CC(CC(C4)C1)C3)c(C)[n+]2[O-]
82.8 µM (inactive)

Record request: GI50 value, item COc1cc2cc3c4c(cc(OC)c(OC)c4c2cc1OC)CCN3C(=O)CCCC(=O)O
> 100 µM (inactive)

Please give the measured GI50 for this compound: OC(c1ccc(Br)cc1)(c1cccs1)C1CC1 (stereo not given)
29.9 µM (inactive)

GI50 for O=C1[C@@H](O)[C@@H]2CCCC[C@@]23CCCN13 ?
> 100 µM (inactive)

Consider the compound O=C(NC12CC3CC(CC(C3)C1)C2)C(=O)c1c[nH]c2ccccc12 and give its measured GI50.
5.77 µM (inactive)

I would be grateful if you could share the reported GI50 for C=C1C2C[C@@H]3OC4CC5O[C@]6(CC5OC4C(C)C3OC(=O)CC3CC[C@@H]4OC5C7OC8C[C@](CCC9CC(=C)[C@H](CCC(C[C@H]1C)O2)O9)(OC7C4O3)O[C@@H]85)C[C@@H]1O[C@@]2(CC(C)[C@@H]3OC(CC(=O)CCO)C(O)C[C@@H]3O2)CC(C)[C@@H]1O6 (stereo not given in full) .
< 0.001 µM (active)

Tell me the measured GI50 of C#CCCOC(=O)c1ccccc1OC(C)=O , please.
> 100 µM (inactive)

###

Measured GI50 of individual entries
# Tested on: SF-268
# procedure-text: NCI tumour cell line growth inhibition, 48 h
The source made the active and inactive calls. Cut-off read from the data, not from the text of the source: active = GI50 up to about 1.1 µM and inactive = higher.

molecule=CCOC(=O)N/N=C(\CC)OCC val="> 100 µM (inactive)"
molecule="c1ccc2[nH]c(C3CCCCO3)nc2c1 (configuration not stated)" val="> 100 µM (inactive)"

Value lookup for GI50; key = CCCCc1ccc(N2C(=O)c3cc([N+](=O)[O-])cnc3S2(=O)=O)cc1
24.2 µM (inactive)

Quick check: GI50 of O=C(O)c1nc2ccc(C(F)(F)F)cc2nc1Nc1ccc(Cl)c(Cl)c1 ?
4.46 µM (inactive)

What value of GI50 has been recorded for this entry: Cc1cc(O)nc(NNC(C#N)c2c(O)ccc3ccccc23)n1 (configuration not stated)
2.28 µM (inactive)

Look up GI50: CSc1nc(C)cc(=O)n1C1OC(COC(C)=O)C(OC(C)=O)C(OC(C)=O)C1OC(C)=O (configuration not stated)
> 100 µM (inactive)
